measurementTarget: UniProt Q8NB16
protocolDetails: MLKL degradation assay in HepG2 cell line (western blot)
Format: cell-based
Set-up: endogenous in cells; host or cells: HepG2 or HaCaT
conditionNotes: compound 10 μM; cell line not given
Exercise: for every item that follows, state its recorded Degradation assay (Degradation %) 10 μM.
One number for each entry, in %.

Solved entries (count: 2):
# molecule, Degradation assay (Degradation %) 10 μM
data = [
    ("Nc1ncc(-c2cnn(C3CCN(CCOC4CCN(C(=O)CCc5cccc6c5CN(C5CCC(=O)NC5=O)C6=O)CC4)CC3)c2)nc1C(=O)O[C@@H](C(=O)Nc1ccc(F)cc1)c1ccccc1 (stereo partly shown) [TDH-387]", 66.9),
    ("Nc1ncc(-c2cnn(C3CCN(C(=O)CC4CCN(C(=O)CCc5cccc6c5CN(C5CCC(=O)NC5=O)C6=O)CC4)CC3)c2)nc1C(=O)O[C@@H](C(=O)Nc1ccc(F)cc1)c1ccccc1 (stereo partly shown) [TDH-404]", 79.08),
]

Report Degradation assay (Degradation %) 10 μM for each item below.
1. Nc1ncc(-c2cnn(C3CCN(CC4CN(C(=O)COc5cccc6c5C(=O)N(C5CCC(=O)NC5=O)C6=O)CCO4)CC3)c2)nc1C(=O)OC(C(=O)Nc1ccc(F)cc1)c1ccccc1 (stereo not shown) [TDH-308]
2. COc1ccc(C(=O)N2CCC(CN3CCC4(CC3)CC(N3CCC(n5cc(-c6cnc(N)c(C(=O)O[C@@H](C(=O)Nc7ccc(F)cc7)c7ccccc7)n6)cn5)CC3)C4)CC2)cc1N1CCC(=O)NC1=O [TDH-499]
3. Nc1ncc(-c2cnn(C3CCN(CCCN4CC5CN(C(=O)COc6ccc7c(c6)C(=O)N(C6CCC(=O)NC6=O)C7=O)CC5C4)CC3)c2)nc1C(=O)O[C@@H](C(=O)Nc1ccc(F)cc1)c1ccccc1 (stereo partly shown) [TDH-466]
4. Nc1ncc(-c2cnn(C3CCN(C(=O)CCC4CCN(C(=O)CC5CCN(c6ccc7c(c6)C(=O)N(C6CCC(=O)NC6=O)C7=O)CC5)CC4)CC3)c2)nc1C(=O)O[C@@H](C(=O)Nc1ccc(F)cc1)c1ccccc1 (stereo partly shown) [TDH-430]

RESULT:
69.64
91.41
86.28
36.66

----------
measurementTarget: MLKL (Homo sapiens, UniProt Q8NB16)
protocolDetails: MLKL degradation assay in HepG2 cell line (western blot)
Type: cell-based
Set-up: endogenous in cells; host or cells: HepG2 or HaCaT
conditionNotes: compound 1 μM; cell line not given
attributeMeasured: Degradation assay (Degradation %) 1 μM
Numbers only, in %.

Solved entries (count: 4):
# compound, Degradation assay (Degradation %) 1 μM
measured = [
    ("Nc1ncc(-c2cnn(C3CCN(CC4CCN(C(=O)CC5CCN(c6ccc7c(c6)C(=O)N(C6CCC(=O)NC6=O)C7=O)CC5)CC4)CC3)c2)nc1C(=O)O[C@@H](C(=O)Nc1ccc(F)cc1)c1ccccc1 (some centres unmarked)", 57.56),
    ("Nc1ncc(-c2cnn(C3CCN(CCOCCOCCNC(=O)COc4ccc5c(c4)C(=O)N(C4CCC(=O)NC4=O)C5=O)CC3)c2)nc1C(=O)O[C@@H](C(=O)Nc1ccc(F)cc1)c1ccccc1 (some centres unmarked)", 36.7),
    ("Nc1ncc(-c2cnn(C3CCN(C(=O)CCC4CCN(C(=O)CC5CCN(c6cccc7c6C(=O)N(C6CCC(=O)NC6=O)C7=O)CC5)CC4)CC3)c2)nc1C(=O)O[C@@H](C(=O)Nc1ccc(F)cc1)c1ccccc1 (some centres unmarked)", 77.13),
    ("Nc1ncc(-c2cnn(C3CCN(CC4CCN(CC5CCN(c6ccc7c(c6)C(=O)N(C6CCC(=O)NC6=O)C7=O)CC5)CC4)CC3)c2)nc1C(=O)O[C@@H](C(=O)Nc1ccc(F)cc1)c1ccccc1 (some centres unmarked)", 63.51),
]

Here's the next entry for you.
QUERY: Report measured Degradation assay (Degradation %) 1 μM; entry is Nc1ncc(-c2cnn(C3CCN(CCC4CCN(C5CC6(CCN(C(=O)Cc7cccc(NC8=CC(=O)N(C9CCC(=O)NC9=O)C8=O)c7)CC6)C5)CC4)CC3)c2)nc1C(=O)O[C@@H](C(=O)Nc1ccc(F)cc1)c1ccccc1 (some centres unmarked)
RESULT: 76.18

----------
Exercise: for every item that follows, state its recorded Degradation assay (Degradation %) 1 μM.
measurementTarget: MLKL (Homo sapiens, UniProt Q8NB16)
Sequence (Q8NB16 1-471): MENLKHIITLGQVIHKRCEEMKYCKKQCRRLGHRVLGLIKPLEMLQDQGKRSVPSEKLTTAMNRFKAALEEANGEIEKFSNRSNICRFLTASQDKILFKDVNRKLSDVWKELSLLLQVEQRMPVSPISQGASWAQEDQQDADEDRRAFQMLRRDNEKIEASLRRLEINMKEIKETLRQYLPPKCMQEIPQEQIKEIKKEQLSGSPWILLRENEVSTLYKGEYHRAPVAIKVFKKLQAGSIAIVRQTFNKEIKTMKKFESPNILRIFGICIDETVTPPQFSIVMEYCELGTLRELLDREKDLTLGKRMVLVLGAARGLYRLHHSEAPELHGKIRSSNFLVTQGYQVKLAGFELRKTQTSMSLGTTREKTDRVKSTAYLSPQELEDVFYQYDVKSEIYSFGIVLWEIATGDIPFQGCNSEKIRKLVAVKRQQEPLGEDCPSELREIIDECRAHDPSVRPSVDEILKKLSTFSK
protocolDetails: MLKL degradation assay in HepG2 cell line (western blot)
Assay type: cell-based
Design: endogenous in cells; host or cells: HepG2 or HaCaT
conditionNotes: compound 1 μM; cell line not given
One number for each entry, in %.

Solved entries (count: 4):
# compound, observedResult
rows = [
    ("Nc1ncc(-c2cnn(C3CCN(C(=O)c4cn(C5CCN(C(=O)CNc6cccc7c6C(=O)N(C6CCC(=O)NC6=O)C7=O)CC5)cn4)CC3)c2)nc1C(=O)O[C@@H](C(=O)Nc1ccc(F)cc1)c1ccccc1 (some centres unmarked)", 22.83),
    ("Nc1ncc(-c2ccc(N3CCN(CC4CCN(C(=O)COc5ccc6c(c5)C(=O)N(C5CCC(=O)NC5=O)C6=O)CC4)CC3)nc2)nc1C(=O)OC(C(=O)Nc1ccc(F)cc1)c1ccccc1 (centres unmarked)", 36.84),
    ("Nc1ncc(-c2cnn(C3CCN(CC4CCN(C(=O)C5CCN(c6ccc7nnn(C8CCC(=O)NC8=O)c(=O)c7c6)CC5)CC4)CC3)c2)nc1C(=O)O[C@@H](C(=O)Nc1ccc(F)cc1)c1ccccc1 (some centres unmarked)", 84.58),
    ("Nc1ncc(-c2cnn(C3CCN(CCC4CCN(C(=O)CNc5ccc6nnn(C7CCC(=O)NC7=O)c(=O)c6c5)CC4)CC3)c2)nc1C(=O)OC(C(=O)Nc1ccc(F)cc1)c1ccccc1 (centres unmarked)", 79.96),
]

Here's the next entry for you.
QUERY: Report measured Degradation assay (Degradation %) 1 μM; entry is Nc1ncc(-c2cnn(C3CCN(C(=O)COCCOCCNc4ccc5c(c4)C(=O)N(C4CCC(=O)NC4=O)C5=O)CC3)c2)nc1C(=O)O[C@@H](C(=O)Nc1ccc(F)cc1)c1ccccc1 (some centres unmarked)
RESULT: 43.02

----------
measurementTarget: MLKL (Homo sapiens, UniProt Q8NB16)
protocolDetails: MLKL degradation assay in HepG2 cell line (western blot)
Type: cell-based
Parameters: endogenous in cells; host or cells: HepG2 or HaCaT
conditionNotes: compound 10 μM; cell line not given
attributeMeasured: Degradation assay (Degradation %) 10 μM
Answers are plain numbers, in %.

Solved entries (count: 3):
# compound, Degradation assay (Degradation %) 10 μM
measured = [
    ("Nc1ncc(-c2cnn(C3CCN(CCOCCNc4cccc5c4C(=O)N(C4CCC(=O)NC4=O)C5=O)CC3)c2)nc1C(=O)O[C@@H](C(=O)Nc1ccc(F)cc1)c1ccccc1 (stereo partly shown)", 24.87),
    ("Nc1ncc(-c2cnn([C@H]3CCN(CC4CCN(C(=O)COc5ccc6c(c5)C(=O)N(C5CCC(=O)NC5=O)C6=O)CC4)C3)c2)nc1C(=O)OC(C(=O)Nc1ccc(F)cc1)c1ccccc1 (stereo partly shown)", 58.09),
    ("COc1ccc(C(=O)N2CCN(CCCN3CCC(n4cc(-c5cnc(N)c(C(=O)O[C@@H](C(=O)Nc6ccc(F)cc6)c6ccccc6)n5)cn4)CC3)CC2)cc1N1CCC(=O)NC1=O", 14.41),
]

Report Degradation assay (Degradation %) 10 μM for each item below.
1. Cc1cccc(NC(=O)[C@H](OC(=O)c2nc(-c3cnn(C4CCN(CCCN5CCN(C(=O)COc6ccc7c(c6)C(=O)N(C6CCC(=O)NC6=O)C7=O)CC5)CC4)c3)cnc2N)c2ccccc2)c1 (stereo partly shown)
2. Nc1ncc(-c2cnn(C3CCN(CCC4CCN(c5cccc6nnn(C7CCC(=O)NC7=O)c(=O)c56)CC4)CC3)c2)nc1C(=O)OC(C(=O)Nc1ccc(F)cc1)c1ccccc1 (stereo not shown)
3. Nc1ncc(-c2cnn(C3CCN(C(=O)C4CCN(C(=O)CNc5ccc6c(c5)C(=O)N(C5CCC(=O)NC5=O)C6=O)CC4)CC3)c2)nc1C(=O)OC(C(=O)Nc1ccc(F)cc1)c1ccccc1 (stereo not shown)

RESULT:
89.93
23.63
75.61

Report Degradation assay (Degradation %) 10 μM for each item below.
1. Nc1ncc(-c2cnn(C3CCN(CCOCCOCCNC(=O)COc4ccc5c(c4)C(=O)N(C4CCC(=O)NC4=O)C5=O)CC3)c2)nc1C(=O)O[C@@H](C(=O)Nc1ccc(F)cc1)c1ccccc1 (stereo partly shown)
2. Nc1ncc(-c2cnn(C3CCN(C(=O)CC4CCN(C(=O)C5CN(c6ccc7c(c6)C(=O)N(C6CCC(=O)NC6=O)C7=O)C5)CC4)CC3)c2)nc1C(=O)O[C@@H](C(=O)Nc1ccc(F)cc1)c1ccccc1 (stereo partly shown)
3. Nc1ncc(-c2cnn(C3CCN(CCCN4CCN(C(=O)Cc5cccc(NC6=CC(=O)N(C7CCC(=O)NC7=O)C6=O)c5)CC4)CC3)c2)nc1C(=O)O[C@@H](C(=O)Nc1ccc(F)cc1)c1ccccc1 (stereo partly shown)
4. Nc1ncc(-c2cnn(C3CCN(CCOC4CCN(c5cccc6c5C(=O)N(C5CCC(=O)NC5=O)C6=O)CC4)CC3)c2)nc1C(=O)OC(C(=O)Nc1ccc(F)cc1)c1ccccc1 (stereo not shown)

RESULT:
60.91
72.99
85.73
59.15
